Each recorded value in this set is attributed to paper PMC5658448.

TARGET: human neurokinin 1 receptor (Homo sapiens, UniProt P25103)
RUN_DESCRIPTION: Real-time cAMP accumulation assay (GloSensor) in CHOhNK1 cells
Assay type: cell-based
TEST_SETTINGS: antagonist pre-incubation, then EC80 concentration of SP; read-out: IC50 (cAMP assay)
pIC50: −log10 of the molar value.
EXPERIMENTAL_ENDPOINT: pIC50

INSERT INTO assay_data (molecule, experimental_endpoint, reported_value) VALUES
  ('C[C@@H](O[C@H]1OCCN(Cc2n[nH]c(=O)[nH]2)[C@H]1c1ccccc1)c1cc(C(F)(F)F)cc(C(F)(F)F)c1 [DFA, desfluoro aprepitant]', 'pIC50', 9.82);

---

TARGET: NK1 receptor (Homo sapiens, UniProt P25103)
Sequence (P25103 whole entry): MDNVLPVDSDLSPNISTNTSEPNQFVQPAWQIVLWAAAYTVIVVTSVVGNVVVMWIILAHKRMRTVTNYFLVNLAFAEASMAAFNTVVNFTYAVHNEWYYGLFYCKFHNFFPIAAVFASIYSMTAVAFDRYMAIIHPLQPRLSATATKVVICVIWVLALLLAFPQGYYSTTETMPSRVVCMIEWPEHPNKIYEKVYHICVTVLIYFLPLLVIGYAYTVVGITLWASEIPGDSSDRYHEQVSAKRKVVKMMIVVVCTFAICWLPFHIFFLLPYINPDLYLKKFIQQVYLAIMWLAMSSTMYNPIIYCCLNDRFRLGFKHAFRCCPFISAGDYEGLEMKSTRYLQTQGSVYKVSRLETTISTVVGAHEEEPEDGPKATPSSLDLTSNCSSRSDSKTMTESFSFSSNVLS
RUN_DESCRIPTION: Impedance-based morphology assay (xCELLigence) in U-251 MG cells
Type: cell-based
Parameters: host or cells: U-251 MG cells
TEST_SETTINGS: antagonist pre-incubation, then EC80 concentration of NKA; read-out: IC50 (morphology)
pIC50: −log10 of the molar value.
EXPERIMENTAL_ENDPOINT: pIC50

INSERT INTO assay_data (molecule, reported_value) VALUES
  ('C[C@@H](O[C@H]1OCCN(Cc2n[nH]c(=O)[nH]2)[C@H]1c1ccccc1)c1cc(C(F)(F)F)cc(C(F)(F)F)c1 [DFA, desfluoro aprepitant]', 9.92);

---

TARGET: human neurokinin 1 receptor (Homo sapiens)
RUN_DESCRIPTION: Real-time cAMP accumulation assay (GloSensor) in CHOhNK1 cells
Format: cell-based
TEST_SETTINGS: antagonist pre-incubation, then EC80 concentration of NKA; read-out: IC50 (cAMP)
EXPERIMENTAL_ENDPOINT: IC50 (pM)

INSERT INTO measurements (molecule, reported_value) VALUES
  ('C[C@@H](O[C@H]1OCCN(Cc2n[nH]c(=O)[nH]2)[C@H]1c1ccccc1)c1cc(C(F)(F)F)cc(C(F)(F)F)c1 [DFA, desfluoro aprepitant]', 260);

---

TARGET: human neurokinin 1 receptor (Homo sapiens)
RUN_DESCRIPTION: Real-time cAMP accumulation assay (GloSensor) in CHOhNK1 cells
Type: cell-based
TEST_SETTINGS: SP after 30 min pre-incubation with 0.21 nM antagonist; read-out: EC50 cAMP SP
EXPERIMENTAL_ENDPOINT: EC50 (nM)

INSERT INTO results (compound, target, reported_value) VALUES
  ('C[C@@H](O[C@H]1OCCN(Cc2n[nH]c(=O)[nH]2)[C@H]1c1ccccc1)c1cc(C(F)(F)F)cc(C(F)(F)F)c1 [DFA, desfluoro aprepitant]', 'human neurokinin 1 receptor (Homo sapiens)', 2.7);

---

TARGET: human neurokinin 1 receptor (Homo sapiens, UniProt P25103)
RUN_DESCRIPTION: Real-time cAMP accumulation assay (GloSensor) in CHOhNK1 cells
Format: cell-based
TEST_SETTINGS: SP after 30 min pre-incubation with 0.7 nM antagonist; read-out: EC50 cAMP SP
EXPERIMENTAL_ENDPOINT: EC50 (nM)

INSERT INTO assay_data (compound, target, unit_text, reported_value) VALUES
  ('C[C@@H](O[C@H]1OCCN(Cc2n[nH]c(=O)[nH]2)[C@H]1c1ccccc1)c1cc(C(F)(F)F)cc(C(F)(F)F)c1 [DFA, desfluoro aprepitant]', 'human neurokinin 1 receptor (Homo sapiens, UniProt P25103)', 'nM', 2.3);

---

TARGET: NK1 receptor (Homo sapiens, UniProt P25103)
RUN_DESCRIPTION: Impedance-based morphology assay (xCELLigence) in U-251 MG cells
Type: cell-based
Set-up: host or cells: U-251 MG cells
TEST_SETTINGS: read-out: EC50 morphology NKA; NKA after 30 min pre-incubation with 0.07 nM antagonist
pEC50: −log10 of the molar value.
EXPERIMENTAL_ENDPOINT: pEC50

INSERT INTO assay_data (molecule, target, experimental_endpoint, reported_value) VALUES
  ('C[C@@H](O[C@H]1OCCN(Cc2n[nH]c(=O)[nH]2)[C@H]1c1ccccc1)c1cc(C(F)(F)F)cc(C(F)(F)F)c1 [DFA, desfluoro aprepitant]', 'NK1 receptor (Homo sapiens, UniProt P25103)', 'pEC50', 8.52);

---

TARGET: human neurokinin 1 receptor (Homo sapiens, UniProt P25103)
RUN_DESCRIPTION: Real-time cAMP accumulation assay (GloSensor) in CHOhNK1 cells
Type: cell-based
TEST_SETTINGS: SP after 30 min pre-incubation with 0.07 nM antagonist; read-out: EC50 cAMP SP
EXPERIMENTAL_ENDPOINT: EC50

INSERT INTO results (molecule, reported_value) VALUES
  ('C[C@@H](O[C@H]1OCCN(Cc2n[nH]c(=O)[nH]2)[C@H]1c1ccccc1)c1cc(C(F)(F)F)cc(C(F)(F)F)c1 [DFA, desfluoro aprepitant]', '1.9 nM');

---

TARGET: NK1 receptor (Homo sapiens, UniProt P25103)
RUN_DESCRIPTION: Impedance-based morphology assay (xCELLigence) in U-251 MG cells
Type: cell-based
Design: host or cells: U-251 MG cells
TEST_SETTINGS: SP after 30 min pre-incubation with 0.07 nM antagonist; read-out: EC50 morphology SP
EXPERIMENTAL_ENDPOINT: EC50

INSERT INTO results (compound, reported_value) VALUES
  ('C[C@@H](O[C@H]1OCCN(Cc2n[nH]c(=O)[nH]2)[C@H]1c1ccccc1)c1cc(C(F)(F)F)cc(C(F)(F)F)c1 [DFA, desfluoro aprepitant]', '0.053 nM');

---

TARGET: human neurokinin 1 receptor (Homo sapiens, UniProt P25103)
RUN_DESCRIPTION: Real-time cAMP accumulation assay (GloSensor) in CHOhNK1 cells
Format: cell-based
TEST_SETTINGS: read-out: EC50 cAMP NKA; NKA after 30 min pre-incubation with 0.21 nM antagonist
EXPERIMENTAL_ENDPOINT: EC50 (µM)

INSERT INTO results (compound, reported_value) VALUES
  ('C[C@@H](O[C@H]1OCCN(Cc2n[nH]c(=O)[nH]2)[C@H]1c1ccccc1)c1cc(C(F)(F)F)cc(C(F)(F)F)c1 [DFA, desfluoro aprepitant]', 0.304);

---

TARGET: human neurokinin 1 receptor (Homo sapiens)
RUN_DESCRIPTION: Real-time cAMP accumulation assay (GloSensor) in CHOhNK1 cells
Type: cell-based
TEST_SETTINGS: read-out: EC50 cAMP NKA; NKA after 30 min pre-incubation with 0.7 nM antagonist
pEC50: −log10 of the molar value.
EXPERIMENTAL_ENDPOINT: pEC50

INSERT INTO assay_data (molecule, target, reported_value) VALUES
  ('C[C@@H](O[C@H]1OCCN(Cc2n[nH]c(=O)[nH]2)[C@H]1c1ccccc1)c1cc(C(F)(F)F)cc(C(F)(F)F)c1 [DFA, desfluoro aprepitant]', 'human neurokinin 1 receptor (Homo sapiens)', 5.97);

---

TARGET: NK1 receptor (Homo sapiens)
RUN_DESCRIPTION: Impedance-based morphology assay (xCELLigence) in U-251 MG cells
Format: cell-based
Parameters: host or cells: U-251 MG cells
TEST_SETTINGS: antagonist pre-incubation, then EC80 concentration of SP; read-out: IC50 (morphology assay)
EXPERIMENTAL_ENDPOINT: IC50

INSERT INTO assay_data (compound, reported_value) VALUES
  ('C[C@@H](O[C@H]1OCCN(Cc2n[nH]c(=O)[nH]2)[C@H]1c1ccccc1)c1cc(C(F)(F)F)cc(C(F)(F)F)c1 [DFA, desfluoro aprepitant]', '0.22 nM');
